Reported Fold difference values for a set of compounds
- Tested System: PfATP6 (Plasmodium falciparum, UniProt Q08853)
- Sequence (Q08853 whole entry): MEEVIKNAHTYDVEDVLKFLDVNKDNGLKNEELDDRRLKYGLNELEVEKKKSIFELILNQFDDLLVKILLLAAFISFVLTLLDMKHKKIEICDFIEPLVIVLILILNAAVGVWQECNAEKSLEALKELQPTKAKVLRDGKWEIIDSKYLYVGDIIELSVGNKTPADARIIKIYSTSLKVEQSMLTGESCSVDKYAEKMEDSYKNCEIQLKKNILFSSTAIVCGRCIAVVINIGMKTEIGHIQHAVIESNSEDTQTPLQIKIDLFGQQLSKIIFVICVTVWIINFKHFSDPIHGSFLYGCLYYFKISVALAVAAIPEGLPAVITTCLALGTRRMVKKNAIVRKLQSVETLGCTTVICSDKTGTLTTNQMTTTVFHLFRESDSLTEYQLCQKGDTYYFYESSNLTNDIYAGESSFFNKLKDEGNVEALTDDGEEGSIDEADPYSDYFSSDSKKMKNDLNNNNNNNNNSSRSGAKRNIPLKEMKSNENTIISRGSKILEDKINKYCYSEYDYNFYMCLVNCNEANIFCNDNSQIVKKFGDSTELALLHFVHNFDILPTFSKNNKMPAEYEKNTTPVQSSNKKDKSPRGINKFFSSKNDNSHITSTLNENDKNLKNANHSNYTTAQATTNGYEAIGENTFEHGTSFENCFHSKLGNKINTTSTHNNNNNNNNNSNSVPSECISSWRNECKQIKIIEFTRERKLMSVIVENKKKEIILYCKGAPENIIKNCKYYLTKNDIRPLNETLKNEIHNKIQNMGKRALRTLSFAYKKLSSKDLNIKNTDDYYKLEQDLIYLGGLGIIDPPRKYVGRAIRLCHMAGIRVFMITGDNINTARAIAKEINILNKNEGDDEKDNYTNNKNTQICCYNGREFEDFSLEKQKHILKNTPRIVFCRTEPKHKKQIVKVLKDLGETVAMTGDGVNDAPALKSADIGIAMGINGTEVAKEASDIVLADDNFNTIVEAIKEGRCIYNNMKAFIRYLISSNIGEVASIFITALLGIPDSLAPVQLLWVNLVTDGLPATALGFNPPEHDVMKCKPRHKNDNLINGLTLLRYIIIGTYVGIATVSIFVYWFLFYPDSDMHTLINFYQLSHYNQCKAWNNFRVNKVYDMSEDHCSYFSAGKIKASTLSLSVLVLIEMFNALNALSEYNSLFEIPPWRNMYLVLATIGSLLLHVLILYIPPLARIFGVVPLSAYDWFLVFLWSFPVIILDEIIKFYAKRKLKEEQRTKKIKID
- Test Name: cell-based
- Type: cell-based
- Parameters: pUGpd containing the yeast-optimized coding region of PfATP6 from Plasmodium falciparum; expressed in transfected cells; host or cells: Saccharomyces cerevisiae K667 and K667Δpdr5::HIS
- Condition Info: IC50 K667[PfATP6] versus K667Δpdr5[PfATP6]
Marks after values point to notes of the source that are not given here.

- Compound: "C[C@H]1[C@@H](O)O[C@@H]2O[C@@]3(C)CC[C@H]4[C@H](C)CC[C@@H]1[C@@]24OO3 [DHA, dihydroartemisinin]"
  Fold difference: "11^c"

// Fold difference lookup, key: C[C@H]1[C@H](OC(=O)CCC(=O)O)O[C@@H]2O[C@@]3(C)CC[C@H]4[C@H](C)CC[C@@H]1[C@@]24OO3 [Artesunate]
4^d

Another compound to check: `CO[C@H]1O[C@@H]2O[C@@]3(C)CC[C@H]4[C@H](C)CC[C@@H]([C@H]1C)[C@@]24OO3`
5^e

Another compound to check: `C[C@H]1[C@H](N2CCS(=O)(=O)CC2)O[C@@H]2O[C@@]3(C)CC[C@H]4[C@H](C)CC[C@@H]1[C@@]24OO3`
4^c
